These entries and their values trace back to the supplement of paper PMC5998384.

Test system: HeLa Kyoto;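 also: HeLa Kyoto cells synchronized by double thymidine or nocodazole block, proteins quantified by TMT10plex mass spectrometry, three independent biological replicates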
experiment.summary: melting temperature (median over replicates), in situ; higher = more thermally stable
recorded.conditions: cell cycle stage: G1/S
Known melting temperature of a selection of sequences

Query block: Provide one value: measured melting temperature of MSKAHPPELKKFTDKKFSLKLNGGRHVQGILRGFDPFMNLVIDECVEMATSGQQKNIGMVEIRGNSIIMLEALERV [SNRPGP15]
Result block: 53.6 °C

Query block: Identify measured melting temperature associated with MGCTLSAEDKAAVERSKMIDRNLREDGEKAAKEVKLLLLGAGESGKSTIVKQMKIIHEDGYSEDECKQYKVVVYSNTIQSIIAIIRAMGRLKIDFGEAARADDARQLFVLAGSAEEGVMTPELAGVIKRLWRDGGVQACFSRSREYQLNDSASYYLNDLDRISQSNYIPTQQDVLRTRVKTTGIVETHFTFKDLYFKMFDVGGQRSERKKWIHCFEGVTAIIFCVALSDYDLVLAEDEEMNRMHESMKLFDSICNNKWFTETSIILFLNKKDLFEEKIKRSPLTICYPEYTGSNTYEEAAAYIQCQFEDLNRRKDTKEIYTHFTCATDTKNVQFVFDAVTDVIIKNNLKECGLY [GNAI3]
Result block: 53.5 °C

Query block: Indicate the recorded melting temperature value for this sequence: MTRGNQRELARQKNMKKQSDSVKGKRRDDGLSAAARKQRDSEIMQQKQKKANEKKEEPK [SERF2]
Result block: 57.5 °C

Query block: Let me know recorded melting temperature for MAEQATKSVLFVCLGNICRSPIAEAVFRKLVTDQNISENWRVDSAATSGYEIGNPPDYRGQSCMKRHGIPMSHVARQITKEDFATFDYILCMDESNLRDLNRKSNQVKTCKAKIELLGSYDPQKQLIIEDPYYGNDSDFETVYQQCVRCCRAFLEKAH [ACP1] , thanks.
Result block: 50.2 °C
